Values were extracted from ChEMBL document CHEMBL1122910.

System: L1210
Assay: Antitumor activity L1210 cell line as cell membrane transport activity
Format: functional, cell-based
Conditions: Mus musculus
Catalogue of Efflux Ki readings, one per entry.
Dear colleague, please return just the value in min⁻¹, with no unit written.

Observe how each entry below is paired with its result.
INSERT INTO measurements (compound, assayed_system, measurement_kind, data_value) VALUES
  ('CCOC(=O)C(CNC(=O)N(CCCl)N=O)NC(=O)c1ccc(N(C)Cc2cnc3nc(N)nc(N)c3n2)cc1 (centres undefined)', 'L1210', 'Efflux Ki', 0.202),
  ('CCOC(=O)C(CNC(=O)N(C)N=O)NC(=O)c1ccc(N(C)Cc2cnc3nc(N)nc(N)c3n2)cc1 (centres undefined)', 'L1210', 'Efflux Ki', 0.298),
  ('CN(Cc1cnc2nc(N)nc(N)c2n1)c1ccc(C(=O)NC(CCCNC(=O)c2ccc(Cl)cc2)C(=O)O)cc1 (centres undefined)', 'L1210', 'Efflux Ki', 0.437);

Query: Notebook entry, L1210 assay: Efflux Ki of CN(Cc1cnc2nc(N)nc(N)c2n1)c1ccc(C(=O)NC(CCNC(=O)c2ccc(Cl)cc2)C(=O)O)cc1 (centres undefined) = ?
Result: 1.21

---

System: L1210
Assay: In vitro antitumor activity against L1210 cell line.
Type: functional, Mus musculus
MEASUREMENT_KIND: Influx Ki
State the value with its unit after it.

Solved entries:
INSERT INTO assay_data (compound, data_value) VALUES
  ('CNC(=O)NCC(NC(=O)c1ccc(N(C)Cc2cnc3nc(N)nc(N)c3n2)cc1)C(=O)O (centres undefined)', '16.7 µM'),
  ('CN(Cc1cnc2nc(N)nc(N)c2n1)c1ccc(C(=O)NC(CCNC(N)=O)C(=O)O)cc1 (centres undefined)', '17.3 µM');

Query: Tell me the measured Influx Ki of CN(Cc1cnc2nc(N)nc(N)c2n1)c1ccc(C(=O)N[C@@H](CCC(=O)O)C(=O)O)cc1 [METHOTREXATE] , please.
Result: 3.7 µM

Query: Reported Influx Ki for CN(Cc1cnc2nc(N)nc(N)c2n1)c1ccc(C(=O)NC(CNC(N)=O)C(=O)O)cc1 (centres undefined) : what is it?
Result: 11.6 µM

---

Target: Dihydrofolate reductase (Mus musculus)
Sequence (P00375 whole entry): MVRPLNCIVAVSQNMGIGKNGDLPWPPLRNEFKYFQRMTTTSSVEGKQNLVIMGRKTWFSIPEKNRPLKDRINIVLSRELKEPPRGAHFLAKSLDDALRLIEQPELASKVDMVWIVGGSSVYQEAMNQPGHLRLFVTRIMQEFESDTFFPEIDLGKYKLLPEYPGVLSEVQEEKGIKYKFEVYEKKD
Experiment: In vitro inhibitory activity against Dihydrofolate reductase in L1210 cell in mice
Catalogue of molecules with associated Ki
Include the unit after the number when you answer.

Some solved cases for reference:
INSERT INTO measurements (molecule, data_value) VALUES
  ('CN(Cc1cnc2nc(N)nc(N)c2n1)c1ccc(C(=O)NC(CCNC(=O)c2ccc(Cl)cc2)C(=O)O)cc1 (centres undefined)', '6.42 pM'),
  ('CN(Cc1cnc2nc(N)nc(N)c2n1)c1ccc(C(=O)NC(CNC(N)=O)C(=O)O)cc1 (centres undefined)', '35000 pM'),
  ('CN(Cc1cnc2nc(N)nc(N)c2n1)c1ccc(C(=O)NC(CCNC(N)=O)C(=O)O)cc1 (centres undefined)', '4 pM'),
  ('CNC(=O)NCC(NC(=O)c1ccc(N(C)Cc2cnc3nc(N)nc(N)c3n2)cc1)C(=O)O (centres undefined)', '14200 pM'),
  ('CN(Cc1cnc2nc(N)nc(N)c2n1)c1ccc(C(=O)NC(CNC(=O)c2ccc(Cl)cc2)C(=O)O)cc1 (centres undefined)', '4.98 pM'),
  ('CN(Cc1cnc2nc(N)nc(N)c2n1)c1ccc(C(=O)NC(CNC(=O)NC(CCC(=O)O)C(=O)O)C(=O)O)cc1 (centres undefined)', '4.71 pM'),
  ('CCOC(=O)C(CNC(=O)N(CCCl)N=O)NC(=O)c1ccc(N(C)Cc2cnc3nc(N)nc(N)c3n2)cc1 (centres undefined)', '3240 pM'),
  ('CCOC(=O)C(CNC(=O)N(C)N=O)NC(=O)c1ccc(N(C)Cc2cnc3nc(N)nc(N)c3n2)cc1 (centres undefined)', '6350 pM');

Query: What measured Ki goes with CN(Cc1cnc2nc(N)nc(N)c2n1)c1ccc(C(=O)NC(CCCNC(=O)c2ccc(Cl)cc2)C(=O)O)cc1 (centres undefined) ?
Result: 5.31 pM
